Measured growth, listed per entry.
- System: A498 renal
- run_description: NCI-60 one-dose screen, 48 h (100 = growth as untreated, 0 = no growth, -100 = all killed)
- test_settings: 10 µM
- Experimental: Growth inhibition of the A498 human tumor cell line is measured as a screen for anti-cancer activity. Cells are grown in 96 well plates and exposed to the test compound for 48 hours. Compounds are tested at a single concentration, which is 10^-5 M for most compounds. The reported endpoint is percent growth (GI% or GIPRCNT), where numbers from 0 - 100% represent growth inhibition, and numbers from -100% - 0 represent cell death. For example, a value of 40 represents 60% growth inhibition. […]
About 83,000 compounds went through this panel and 20% of them were active in at least one assay; those are over-represented in the sample as a whole.
# unit: % | format: bare number

Bench note: what growth did CCN=c1cc2sc3cc(NCC)c(C)cc3nc-2cc1C show?
47.7

Bench note: what growth did O=C(CCNNC(=O)c1ccncc1)NCc1ccccc1 show?
110

Next:
Bench note: what growth did OCC(O)C(O)C(O)C(O)/C=N/O (configuration not stated) show?
102

Bench note: what growth did COc1ccc2c(c1)CCc1c-2n[nH]c1-c1[nH]nc2c1CCc1cc(OC)ccc1-2 show?
109

Bench note: what growth did CC(=O)C1CCCCC1 show?
99.1

Bench note: what growth did CC(=O)OCC1CCCO1 (configuration not stated) show?
101

Bench note: what growth did NCCC(=O)c1ccc(Cl)cc1 show?
107
